# test-description: qHTS for Inhibitors of TGF-b; note: nearly all actives have a fitted effect of over 65% in size; note: potency is the fitted concentration of half-maximal effect
# experimental-context: HepG2 CAGA-GFP TGF-b/SMAD3 reporter, GFP fluorescence, 18 h, TGF-beta stimulated, 500 pg/mL final; series mostly up to 46.1 µM
Among all 410,000 compounds or so, about 5,000 (1.2%) were called active. Not shown: some 13% with an inconclusive outcome. This excerpt belongs to a sample that is enriched for actives.
measurement-type: Potency

Consider the worked cases shown below.
Cc1ccc(C(=O)Nc2c(C(=O)NC(C)(C)C)oc3ccccc23)cc1
inactive
O=C(Nc1cccc(NC(=O)c2ccccc2[N+](=O)[O-])c1)c1ccccc1Cl
inactive
COc1cccc(-c2cc(C(=O)Nc3ccc(C)cc3)[nH]n2)c1
inactive
CCOC(=O)CNC(=O)/C(=C\c1ccc(F)cc1)NC(=O)c1ccccc1
inactive
CCOc1ccc(CNC(=O)c2ccc3nc(CC)c(CC)nc3c2)cc1OC
inactive
Nc1ccc(/C=C/c2ccnc3ccccc23)c([N+](=O)[O-])c1
inactive

query: Check the records and state Potency for O=C(Nc1ccc(Br)cn1)c1ccc([N+](=O)[O-])o1
result: 10 µM (active)

query: Check the records and state Potency for Cc1nn(CC(=O)NCCc2ccccc2)c(=O)c2c1sc1ccccc12
result: inactive

query: Check the records and state Potency for Clc1ccc(Nc2nc(-c3cccs3)cs2)nc1
result: 11.2 µM (active)

query: Check the records and state Potency for CCOC(=O)c1ccc(NC(=O)CC2C(=O)N(c3cccc(OC)c3)C(=O)N2C2CCCCC2)cc1 (stereo not drawn)
result: inactive

query: Check the records and state Potency for Brc1cccc(-c2nnn3c2nc(NC2CCCCC2)c2ccccc23)c1
result: inactive

query: Check the records and state Potency for O=C(CSc1ncnc2scc(-c3ccccc3)c12)NCc1ccc2c(c1)OCO2
result: inactive

query: Check the records and state Potency for CCOC(=O)Cn1c(=O)n(C2CCCCC2)c2nc(-c3cccc(OC)c3)nc(C(N)=O)c21
result: inactive

query: Check the records and state Potency for COCCN(CCOC)S(=O)(=O)c1ccc(C(=O)Nc2nc3c(s2)CCc2ccccc2-3)cc1
result: inactive

query: Check the records and state Potency for Cc1ccccc1-c1nc(SCC(=O)N(C)c2ccccc2)c2c(=O)n(C)c(=O)n(C)c2n1
result: inactive

query: Check the records and state Potency for COc1ccc2c(c1)Cc1sc(NC(=O)c3ccccc3Br)nc1-2
result: 7.08 µM (active)

query: Check the records and state Potency for Cc1onc(C(=O)Nc2ccc3c(c2)OCO3)c1[N+](=O)[O-]
result: inactive

query: Check the records and state Potency for CCN(c1ccc(Cl)cc1)S(=O)(=O)c1nnc(NC(=O)c2ccco2)s1
result: inactive

###

# test-description: qHTS for Inhibitors of TGF-b; note: nearly all actives have a fitted effect of over 65% in size; note: potency is the fitted concentration of half-maximal effect
# experimental-context: HepG2 CAGA-GFP TGF-b/SMAD3 reporter, GFP fluorescence, 18 h, TGF-beta stimulated, 500 pg/mL final; series mostly up to 46.1 µM
Among all 410,000 compounds or so, about 5,000 (1.2%) were called active. Inconclusive results (about 13%) are left out. This excerpt belongs to a sample that is enriched for actives.
measurement-type: Potency

Cc1cc(C)n(C(=O)CCNC(=O)c2ccccc2Cl)n1
inactive
CSc1ccc(NC(=O)Cn2nnnc2-c2ccccc2F)cc1
inactive
CCOC(=O)C1CCN(C(=O)CSc2c3c(nc4ccc(Cl)cc24)CCCC3)CC1
15.8 µM (active)
CCOCCc1nn2c(=O)cc(COC(=O)CNC(=O)c3ccc(C(C)(C)C)cc3)nc2s1
inactive
CCCN(CCC)CCNC(=O)c1cc2c(C)nc3ccccc3c2o1
inactive

query: Check the records and state Potency for COc1cccc(CNc2nccn(-c3ccc(OC)c(OC)c3)c2=O)c1
result: inactive

query: Check the records and state Potency for CCCCC(CCCC)c1ccc(C=Nc2ccc(/C=C/c3ccnc4ccccc34)cc2)cc1
result: inactive

query: Check the records and state Potency for CN(C)CCNC(=O)c1ccc(Cl)c2cc3ccccc3nc12
result: 3.55 µM (active)

query: Check the records and state Potency for CCCN(CC1COc2ccccc2O1)C(=S)Nc1ccc(C)cc1 (stereo unspecified)
result: inactive

query: Check the records and state Potency for CCN(CC)C(=O)C1=C(C)N(Cc2ccc(F)cc2)C(=O)C(CC(=O)NCc2cccc3ccccc23)C1 (stereo unspecified)
result: inactive

query: Check the records and state Potency for CC(NC(=S)Nc1ccccc1)C1COc2ccccc2O1 (stereo unspecified)
result: inactive

###

# test-description: qHTS for Inhibitors of TGF-b; note: nearly all actives have a fitted effect of over 65% in size
# experimental-context: HepG2 CAGA-GFP TGF-b/SMAD3 reporter, GFP fluorescence, 18 h, TGF-beta stimulated, 500 pg/mL final; series mostly up to 46.1 µM
In all, about 410,000 compounds went through this assay and about 5,000 (1.2%) were called active. About 13% were inconclusive and are not listed. Calls follow the shape of the dose curve; as a rule, active = well fitted inhibition curve with a large enough effect; inconclusive = small, poorly fitted or top-dose-only effect; inactive = no such curve, though single readings can be large or run the other way. This excerpt belongs to a sample that is enriched for actives.
Returns: one label drawn from active, inactive

query: So what was the verdict on CC(=O)c1cccc(NC(=S)N2CCCC2)c1 in this test?
result: inactive

query: So what was the verdict on COc1ccc(CCNC(=O)CCCCn2c(=O)c3ccccc3n(Cc3ccccc3)c2=O)cc1OC in this test?
result: inactive

query: So what was the verdict on CCc1nccn1S(=O)(=O)c1cc(Br)ccc1Br in this test?
result: inactive

query: So what was the verdict on CCCN(CCC)CCNC(=O)Cn1cnc2sc(C)c(S(=O)(=O)N3CCC(C)CC3)c2c1=O in this test?
result: inactive

query: So what was the verdict on CC(=O)c1ccc(NC(=O)CSc2nnc(NC(=O)Nc3ccccc3)s2)cc1 in this test?
result: inactive

query: So what was the verdict on Cc1oc2c(F)c(F)c(F)c(F)c2c1S(=O)(=O)Nc1cccc(C(F)(F)F)c1 in this test?
result: active

query: So what was the verdict on Cc1ccc(NC(=O)NNC(=O)c2sccc2-n2cccc2)cc1 in this test?
result: inactive

query: So what was the verdict on CC(C)(C)c1ccc(C(=O)C[N+]2(C)CCCc3ccccc32)cc1 (stereo unspecified) in this test?
result: inactive

query: So what was the verdict on CCCc1nn2c(=O)cc(COC(=O)c3ccc(NC(=O)COc4ccc(F)cc4)cc3)nc2s1 in this test?
result: inactive

query: So what was the verdict on COc1ccc(C2C(=O)N(C3CCCCCC3)CC(=O)N2CCc2ccc(Cl)cc2)cc1OC (stereo unspecified) in this test?
result: inactive

query: So what was the verdict on COc1ccc(-c2onc(C)c2-c2ccc3c(c2)OCCO3)c(O)c1 in this test?
result: active

query: So what was the verdict on CCOC(=O)c1cc2c(=O)n3ccccc3nc2n(CCCOC)c1=NC(=O)C(C)(C)Oc1ccc(Cl)cc1 in this test?
result: inactive

query: So what was the verdict on CN(CC(=O)Nc1cccc(C(F)(F)F)c1)S(=O)(=O)c1cccs1 in this test?
result: inactive

query: So what was the verdict on COc1cccc(CNc2nc(NCc3ccccc3OC)nc3ccsc23)c1 in this test?
result: active

query: So what was the verdict on O=C(O)c1ccc2c(c1)N(Cc1ccc(F)cc1)C(=O)c1ccccc1S2=O (stereo unspecified) in this test?
result: inactive

query: So what was the verdict on CC(C)c1ccc(OCC(=O)N(Cc2ccc(N(C)C)cc2)C2CCS(=O)(=O)C2)cc1 (stereo unspecified) in this test?
result: inactive

query: So what was the verdict on COc1ccc(S(=O)(=O)n2nc(C)c(S(=O)(=O)N3CCCCCC3)c2C)cc1 in this test?
result: inactive

query: So what was the verdict on C=CCSc1nsc(NC(=O)Nc2cccc(C(C)=O)c2)n1 in this test?
result: active

###

# test-description: qHTS for Inhibitors of TGF-b; note: nearly all actives have a fitted effect of over 65% in size
# experimental-context: HepG2 CAGA-GFP TGF-b/SMAD3 reporter, GFP fluorescence, 18 h, TGF-beta stimulated, 500 pg/mL final; series mostly up to 46.1 µM
# From the text: TGF-b is a main component in the TGF-b signaling pathway which plays diverse roles in cellular and development pathways. TGF-b is the mediated by the transcription factors Smads. […] We aim to identify Smad3-small molecule antagonists using a quantitative high throughput screening (qHTS) approach. […] Concentration-response curves were fitted to the signals arising from the resulting fluorescence. […]
Out of some 410,000 compounds screened, about 5,000 (1.2%) were called active. Inconclusive results (about 13%) are left out. Calls follow the shape of the dose curve; as a rule, active = well fitted inhibition curve with a large enough effect; inconclusive = small, poorly fitted or top-dose-only effect; inactive = no such curve, though single readings can be large or run the other way. Only a selection was taken, and actives are over-represented in it overall.
Returns: one label drawn from T (active), F (inactive)

Cc1nnc(NCc2ccccc2)c2c1nnn2Cc1ccc(F)cc1
F
Cc1cccc(N2CCN(C(=O)c3cnc(N4CCCC4)nc3C)CC2)c1C
F
CS/C(=C\C(=O)c1ccco1)Nc1ccccc1Cl
F

Now, please, on to the next compound.
query: So what was the verdict on CCOc1cc(C2c3c(-c4ccc(Br)cc4)n[nH]c3C(=O)N2c2ccc(Cl)cc2)ccc1O (configuration not stated) in this test?
result: T

###

# test-description: qHTS for Inhibitors of TGF-b; note: nearly all actives have a fitted effect of over 65% in size; note: potency is the fitted concentration of half-maximal effect
# experimental-context: HepG2 CAGA-GFP TGF-b/SMAD3 reporter, GFP fluorescence, 18 h, TGF-beta stimulated, 500 pg/mL final; series mostly up to 46.1 µM
In all, about 410,000 compounds went through this assay and about 5,000 (1.2%) were called active. Another 13% or so got no clear call; they are omitted. For the sample, actives were picked, then their nearest neighbours and some compounds at random.
measurement-type: Potency

Consider the worked cases shown below.
CCCOc1ccccc1C1CC(=O)Nc2cc3c(cc21)OCO3 (stereo unspecified)
7.08 µM (active)
OCC1OC(n2cnc3c(N4CCCC4)ncnc32)C(O)C1O (stereo unspecified)
2.82 µM (active)
CCCNC(=O)c1ccc(Cn2c(SCC(N)=O)nc3ccccc3c2=O)cc1
inactive
O=C(CSc1ncc(S(=O)(=O)c2ccc(Br)cc2)c(=O)[nH]1)Nc1ccc2c(c1)OCCO2
inactive
O=C1CC(c2ccc(F)cc2F)c2cc3c(cc2N1)OCO3 (stereo unspecified)
inactive
Cc1ccc(-c2nc(S(=O)(=O)c3ccc(C)cc3)c(N3CCCCCC3)o2)cc1
inactive
CCc1ccc(C(CNc2nc(C(F)(F)F)nc3ccccc23)N(C)C)cc1 (stereo unspecified)
11.2 µM (active)
COc1cc(NC(=O)c2nc3ccccc3nc2C)cc(OC)c1OC
inactive
CCCOc1ccc(F)cc1-c1cc(C(=O)Nc2ccc(F)c(Cl)c2)[nH]n1
11.2 µM (active)
CCOC(=O)N1CCC(NC(=O)c2cnn(-c3cccc(C)c3)c2C2CCN(C(=O)OC(C)(C)C)CC2)CC1
inactive

query: Check the records and state Potency for Cc1ccc(-c2cn3c(n2)sc2cc(C(=O)NCc4cccs4)ccc23)c(C)c1
result: inactive

query: Check the records and state Potency for CC(C)Oc1cc(F)ccc1-c1cc(C(=O)Nc2ccc(F)cc2)[nH]n1
result: inactive

query: Check the records and state Potency for OC[C@@H]1O[C@H](n2cnc3c(SCc4ccccc4)ncnc32)[C@H](O)[C@H]1O
result: inactive

query: Check the records and state Potency for CCCCSc1ncnc2c1sc1nc(N3CCOCC3)c3c(c12)CCCC3
result: inactive

query: Check the records and state Potency for CC(C)S(=O)(=O)c1oc(-c2ccc(F)cc2)nc1S(=O)(=O)c1ccc(F)cc1
result: 1.26 µM (active)

query: Check the records and state Potency for O=C(CSc1oc(-c2ccc(F)cc2)nc1S(=O)(=O)c1ccc(Br)cc1)NC1CCCCC1
result: inactive
